Reported mass density values follow for various molecules
# Test Parameters: 298.15 K; 101.33 kPa; Liquid; Pycnometric method

- Record Smiles: "C1CCCCC1"
  mass density (kg/m3): 773.94
- Record Smiles: "CCCCCCC"
  mass density (kg/m3): 679.49
- Record Smiles: "CCCCCC"
  mass density (kg/m3): 654.82
- Record Smiles: "Cc1ccccc1N"
  mass density (kg/m3): 994.28
